Test system: E21 (patient-derived glioblastoma stem cells of mesenchymal subtype);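 note: cell Painting imaging in 384-well plates, CellProfiler features reduced to at least 20 principal components, Euclidean distance versus same-plate DMSO vehicle wells (0.1% v/v), median over six images per well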
Experiment: phenotypic distance (Euclidean, principal components) from DMSO controls (arbitrary units); higher = stronger morphological change
Conditions: 3000 nM; exposure time: 72 h
Where a name gives a salt, the structure may show the parent alone.
Label scheme, based on phenotypic distance: lo = under 2, med = from 2 up to 6, hi = 6 and over

Field: example entries. Status: answers known.
C[C@@H](O[C@H]1OCCN(Cc2n[nH]c(=O)[nH]2)[C@H]1c1ccc(F)cc1)c1cc(C(F)(F)F)cc(C(F)(F)F)c1 [Aprepitant] | lo
CN1[C@@H]2CC[C@H]1CC(OC(=O)c1c[nH]c3ccccc13)C2 (stereo not given in full) [3-Tropanyl-indole-3-carboxylate hydrochloride] | lo
C/C=C1\NC(=O)[C@H]2CSSCC/C=C/[C@H](CC(=O)N[C@H](C(C)C)C(=O)N2)OC(=O)[C@H](C(C)C)NC1=O [Romidepsin] | hi
CC(C)C[C@H](NC(=O)[C@H](Cc1ccccc1)NC(=O)c1cnccn1)B(O)O [Bortezomib] | hi
C=CC(=O)Nc1cccc(Oc2nc(Nc3ccc(N4CCN(C)CC4)cc3)nc3ccsc23)c1 [Olmutinib] | med
CC(C)C[C@@H](C(=O)N[C@H](C(=O)OC1CCCC1)c1ccccc1)[C@H](O)C(=O)NO [Tosedostat] | med

Lookup: Exam item: assign C[C@H](NC(=O)[C@@H](O)c1cc(F)cc(F)c1)C(=O)N[C@@H]1C(=O)N(C)c2ccccc2-c2ccccc21 to the correct category.
Found: lo

Lookup: Next compound: N=C(NCCCCCCNC(=N)NC(=N)Nc1ccc(Cl)cc1)NC(=N)Nc1ccc(Cl)cc1 [Chlorhexidine]
Found: hi
